Measured viability (% of control) accompanies every entry in the list below.
assay: High-throughput drug toxicity screening in the BPDCN cell line Cal-1 (AID 1224825); conditions: Cal-1 BPDCN cell viability, qHTS; at 45.8 µM (top of the series) unless noted;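 also: cells exposed to compounds for 48 h; 100% = DMSO and 0% = bortezomib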
Number only, in %; omit the unit.

The examples below pair each entry with its known result.
Let me know recorded viability (% of control) for CCN(CC)CCCCNc1ncc2c(n1)N(C)C(=O)N(c1c(Cl)c(OC)cc(OC)c1Cl)C2 , thanks.
50.4

Determine its reported viability (% of control): CCC(C(=O)O)C1CCC(C)C(C(C)C(O)C(C)C(=O)C(CC)C2OC3(C=CC(O)[C@@]4(CC[C@](C)(C5CC[C@@](O)(CC)C(C)O5)O4)O3)C(C)CC2C)O1 (stereo partly drawn)
12.3

For COC(=O)C1C2CC3c4[nH]c5cc(OC)ccc5c4CCN3CC2CC(OC(=O)c2cc(OC)c(OC)c(OC)c2)C1OC (stereo not drawn) , write its viability (% of control).
78.7

Read off the recorded viability (% of control) for COc1ccc(C(C)=O)c(O)c1
35.9

Tell me viability (% of control) reported for O=C(Nc1nnc(-c2ccco2)o1)c1cc(-c2ccccc2)nc2ccccc12
17.3

Others:
Look up and report measured viability (% of control) for this entry: C=CC(=O)Nc1cc(NC(=O)c2ccc(C)c(NC(=O)c3ccno3)c2)cc(C(F)(F)F)c1
3.59

Tell me its viability (% of control) given CC(=O)[C@]1(O)Cc2c(O)c3c(c(O)c2[C@@H](O[C@H]2C[C@H](N)[C@@H](O)[C@H](C)O2)C1)C(=O)c1ccccc1C3=O as the entry.
4.63

----------
assay: qHTS Screen of the MIPE 4.0 Collection Against Ewings Sarcoma (TC32) (AID 1259256); details: TC32 Ewing sarcoma viability, CellTiter-Glo, 48 h; series mostly up to 45.8 µM; also: nearly all actives have a fitted effect of over 45% in size
Inconclusive results are not listed. Active and inactive are the calls of the source. Calls come from the whole dose curve; as a rule, active = well fitted inhibition curve with a large enough effect; inconclusive = small, poorly fitted or top-dose-only effect; inactive = no such curve, though single readings can be large or run the other way.
Hi there, use one of these labels in your reply, thanks! true (1) = active, false (0) = inactive

Worked cases, answers included:
Dear colleague, could you share the recorded outcome for CCNC(=O)c1cc2c(-c3cc(OCCN4CCCC4)c(Cl)cc3Cl)nc(N)nc2s1 when you have a moment?
true (1)

I'd appreciate the recorded outcome for N#Cc1c(C2CCNCC2)cc(-c2c(O)cccc2OCC2CC2)nc1N from this test.
true (1)

Next:
Hey, what did the test say about NC[C@H]1O[C@H](O[C@H]2[C@@H](O)[C@@H](O[C@H]3O[C@H](CO)[C@@H](O)[C@H](N)[C@@H]3O)[C@H](N)C[C@@H]2N)[C@H](N)C[C@H]1O ?
false (0)

Per the assay record, what outcome was assigned to CC(=O)N1CCN(c2ccc(OCc3nn(C)c(C)c3-c3cccc4c(CCCOc5cccc6ccccc56)c(C(=O)O)n(Cc5cccnc5)c34)cc2)CC1 ?
true (1)

Just curious, what result did Cc1ccc(O)c(C(CCN(C(C)C)C(C)C)c2ccccc2)c1 (configuration not stated) get here?
false (0)

Hi team, can someone confirm the assay call for CCC(C(=O)O)C1CCC(C)C(C(C)C(O)C(C)C(=O)C(CC)C2OC3(C=CC(O)[C@@]4(CC[C@](C)(C5CC[C@@](O)(CC)C(C)O5)O4)O3)C(C)CC2C)O1 (some centres not stated) ?
true (1)

Could you please tell me the result logged for C#CCC(Cc1cnc2nc(N)nc(N)c2n1)c1ccc(C(=O)N[C@@H](CCC(=O)O)C(=O)O)cc1 (some centres not stated) in this assay?
true (1)

What call does the record list for C[C@H](NC(=O)[C@@H](O)c1cc(F)cc(F)c1)C(=O)N[C@@H]1C(=O)N(C)c2ccccc2-c2ccccc21 ?
false (0)

Outcome logged for Cc1cc(C(=O)NOCCO)c(Nc2ccc(I)cc2F)n(C)c1=O in this assay:
false (0)

----------
assay: qHTS profiling of the MIPE4 collection as inhibitors of Plasmodium falciparum (HB3) proliferation (AID 743347);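 also: plate controls were DMSO vehicle wells for no effect and artemisinin wells for full effect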; settings: P. falciparum HB3 in erythrocytes, SYBR Green DNA, 72 h; at 28.5 µM (top of the series) unless noted
Mark y for growth, % of control under 30%, n if at or over.

Criterion: growth, % of control strictly below 30%. Is it met by C[C@H](NC(=O)[C@@H](O)c1cc(F)cc(F)c1)C(=O)N[C@@H]1C(=O)N(C)c2ccccc2-c2ccccc21 ?
y

Regarding CN(CC(=O)N(Cc1ccc(C2CCCCC2)cc1)c1ccc(C(=O)O)c(O)c1)S(=O)(=O)c1c(F)c(F)c(F)c(F)c1F , kindly confirm whether its growth, % of control is beneath 30%.
y

Report whether reported growth, % of control is lower than 30% (strictly) for NC(=O)Nc1cc(-c2ccc(CN3CCOCC3)cc2)sc1C(N)=O
n

Criterion: growth, % of control strictly below 30%. Is it met by CCCCCCCCCCCC(CC1OC(=O)C1CCCCCC)OC(=O)C(CC(C)C)NC=O (centres undefined) ?
y

Dear colleague, could you confirm whether growth, % of control of CCC[C@H]1C[C@H](C(=O)N[C@@H]([C@@H]2O[C@@H](SC)[C@@H](O)[C@@H](O)[C@@H]2O)[C@H](C)Cl)N(C)C1 falls below 30%? Thanks.
y

Continuing:
Here's an entry: Nc1ncn([C@@H]2O[C@H](CO)[C@@H](O)[C@@H]2O)c(=O)n1 . Is its growth, % of control below 30%?
n

Does the reported growth, % of control of CN(C)CC(=O)N1CCC(c2ccc(NC(=O)c3ncc(C#N)[nH]3)c(C3=CCCCC3)c2)CC1 stay below 30%?
y

Please state whether growth, % of control is below 30% for CC(=O)O[C@H]1C[C@@H]2CC[C@H]3[C@H]4C[C@H]([N+]5(C)CCCCC5)[C@@H](OC(C)=O)[C@@]4(C)CC[C@@H]3[C@@]2(C)C[C@H]1N1CCCCC1
n

Is growth, % of control strictly under 30% for the entry C[C@H](NC(=O)Cc1cc(F)cc(F)c1)C(=O)N[C@H](C(=O)OC(C)(C)C)c1ccccc1 ?
n

Lab log: compare recorded growth, % of control with 30%; is it strictly lower for NC(=O)c1ncn([C@@H]2O[C@H](CO)[C@@H](O)[C@@H]2O)c1N ?
n

----------
assay: qHTS drug screen for cell cycle checkpoint inhibitors in PARPi-resistant BRCA-mutant ovarian cancer cell lines. (AID 1963452); details: PEO1/OlaR viability, CellTiter-Glo luminescence, 96 h; measured here: PEO4 Z-AUC; stronger effect = lower value
QUANTITY_MEASURED: Z-AUC
Provide a numeric answer; units are not to be included.

Give Z-AUC for CC(C)c1cc(C(C)C)c(CC(=O)NS(=O)(=O)Oc2c(C(C)C)cccc2C(C)C)c(C(C)C)c1
1.13

Give recorded Z-AUC. COC(=O)[C@H](CCCN=C(N)N)NS(=O)(=O)c1ccc(C)cc1
1

Fill in reported Z-AUC for this entry: C#CCC(Cc1cnc2nc(N)nc(N)c2n1)c1ccc(C(=O)N[C@@H](CCC(=O)O)C(=O)O)cc1 (some centres undefined)
-1.96

Recall and state the measured Z-AUC for COC[C@H](NC(=O)c1cnc(C)s1)C(=O)N[C@@H](COC)C(=O)N[C@@H](Cc1ccccc1)C(=O)[C@@]1(C)CO1 .
-3.23

State, in one line, measured Z-AUC of Nc1cccc2c1C(=O)N(C1CCC(=O)NC1=O)C2=O (centres undefined)
-0.357

Name the recorded Z-AUC of the item C=CC(=O)N1CCc2ccc(-n3c(=O)ccc4cnc5ccc(-c6cnn(C)c6)cc5c43)cc21 in your answer.
-0.334

Please give the documented Z-AUC of NC(=O)Nc1sc(-c2ccc(F)cc2)cc1C(N)=O
-1.05

Quick one: give measured Z-AUC for CC(C)(N)c1ccc(-c2nc3ccccc3nc2-c2ccccc2)cc1
0.291

Next, consider the following compound.
Indicate its recorded Z-AUC; the compound in question is Cn1cc(C2=C(c3c4n(c5ccccc35)CCC(CN)C4)C(=O)NC2=O)c2ccccc21 (centres undefined)
1.18

----------
assay: Quantitative High-Throughput drug screen in 47 multiple myeloma cell lines against the NCATS MIPE library collection: KMM1_JCRB cell viability assay (AID 1918960); conditions: KMM1 myeloma viability, CellTiter-Glo ATP luminescence, 48 h; series mostly up to 45.8 µM; also: nearly all actives have a fitted effect of over 30% in size; also: potency is read from the fitted curve at half-maximal effect
Inconclusive results are not listed. Active and inactive are the calls of the source. The call rests on the fitted dose curve; in most records, active means well fitted cell-killing curve with a large enough effect; inconclusive means small, poorly fitted or top-dose-only effect, or effect the other way; inactive means no such curve, though single readings can be large or run the other way.
QUANTITY_MEASURED: Potency

Give the value of Potency reported for the following: CCOC(=O)[C@H](CCc1ccccc1)N[C@@H](C)C(=O)N1[C@@H](C(=O)O)C[C@H]2CCC[C@@H]21
7.43 µM (active)

Query Potency for Nc1ccn(C2CO[C@H](CO)O2)c(=O)n1 (stereo partly specified)
inactive

For the compound O=S(=O)(O)CCSSCCS(=O)(=O)O , give its measured Potency value.
inactive

Look up Potency of CC(=O)OC[C@@H]1O[C@@H](n2ccc(=O)[nH]c2=O)[C@H](OC(C)=O)[C@H]1OC(C)=O and report it.
inactive

State its Potency: CC(Oc1ccc(O)cc1)(P(=O)(O)O)P(=O)(O)O
inactive

More entries:
Please indicate Potency recorded for CC(C)c1cnn2c(NCc3ccccc3)cc(NCCCCCCN)nc12
16.6 µM (active)

src = PubChem BioAssay (NCATS)
